- assaySystem: C-C chemokine receptor type 2 (Homo sapiens, UniProt P41597)
- Sequence (P41597 whole entry): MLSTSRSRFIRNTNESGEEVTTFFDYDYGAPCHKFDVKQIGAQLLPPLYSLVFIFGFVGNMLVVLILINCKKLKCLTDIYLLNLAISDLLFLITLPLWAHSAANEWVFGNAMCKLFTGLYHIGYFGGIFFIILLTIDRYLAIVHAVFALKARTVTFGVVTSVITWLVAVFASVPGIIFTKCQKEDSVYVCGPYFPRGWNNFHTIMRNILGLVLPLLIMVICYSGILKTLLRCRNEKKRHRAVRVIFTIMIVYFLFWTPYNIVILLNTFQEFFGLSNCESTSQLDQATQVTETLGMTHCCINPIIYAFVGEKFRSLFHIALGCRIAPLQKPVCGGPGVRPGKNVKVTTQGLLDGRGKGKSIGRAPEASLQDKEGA
- experimentNotes: Displacement of [3H]-CCR2-RA-[R] from human CCR2 expressed in human U2OS cells incubated for 2 hrs by scintillation spectrometric method
- Format: cell-based
- conditionSummary: read-out: Ki
// classify: if (Ki < 4 nM) 1 else 0

# smilesStr, categoryLabel
data = [
    ("CCCc1[nH]c2nc(N)nn2c(=O)c1Cc1cccc(Cl)c1", 1),
    ("Cc1cccc(Cc2c(C3CC3)[nH]c3nc(N)nn3c2=O)c1", 1),
    ("Cc1[nH]c2nc(N)nn2c(=O)c1Cc1cccc(Cl)c1", 0),
    ("COc1ccccc1Cc1c(C2CC2)[nH]c2nc(N)nn2c1=O", 0),
    ("CCCCCc1[nH]c2nc(N)nn2c(=O)c1Cc1cccc(Cl)c1", 0),
    ("Cc1nc2[nH]c(C3CC3)c(Cc3cccc(Cl)c3)c(=O)n2n1", 1),
    ("Nc1nc2[nH]c(C3CC3)c(Cc3cccc(C(F)(F)F)c3)c(=O)n2n1", 0),
    ("CC(C)c1[nH]c2nc(N)nn2c(=O)c1Cc1cc(Cl)ccc1Cl", 0),
    ("Nc1nc2[nH]c(C3CC3)c(Cc3cccc(I)c3)c(=O)n2n1", 1),
]

---

- assaySystem: UniProt P41597
- experimentNotes: Antagonist activity at CCR2b in human THP1 cells assessed as inhibition of human MCP1 induced calcium flux by fluo-4 dye based fluorescence assay
- Format: functional, cell-based
measuredMetric: IC50

# smilesStr, reportedResult
data = [
    ("Nc1nc2[nH]c(C3CC3)c(Cc3cccc(Cl)c3)c(=O)n2n1", "16 to 20 nM"),
]

---

The entries below come with measured inhibition values attached.
- assaySystem: UniProt P51681
- Sequence (P51681 whole entry, looked up): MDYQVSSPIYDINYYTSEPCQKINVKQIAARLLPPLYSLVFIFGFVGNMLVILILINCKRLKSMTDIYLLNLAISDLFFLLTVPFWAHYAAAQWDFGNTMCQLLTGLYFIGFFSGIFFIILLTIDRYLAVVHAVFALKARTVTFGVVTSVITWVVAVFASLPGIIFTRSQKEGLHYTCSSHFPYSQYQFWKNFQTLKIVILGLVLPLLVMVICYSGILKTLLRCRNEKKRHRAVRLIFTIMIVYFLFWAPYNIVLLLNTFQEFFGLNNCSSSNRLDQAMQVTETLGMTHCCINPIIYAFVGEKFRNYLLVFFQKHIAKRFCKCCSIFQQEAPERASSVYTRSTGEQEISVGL
- experimentNotes: Antagonist activity at human TEV cleavage site-linked CCR5 expressed in human U2OS cells harboring beta-lactamase reporter gene assessed as inhibition of CCL3-induced beta-arrestin recruitment at 1 uM incubated for 30 mins followed by CCL3 stimulation and measured after 16 hrs by Tango assay relative to control
- Assay type: cell-based

# smilesStr, assaySystem, inhibition
rows = [
    ("CC(C)c1[nH]c2nc(N)nn2c(=O)c1Cc1cc(Cl)ccc1Cl", "UniProt P51681", "20%"),
    ("Cc1ccccc1Cc1c(C2CC2)[nH]c2nc(N)nn2c1=O", "UniProt P51681", "28%"),
    ("CC(C)c1[nH]c2nc(N)nn2c(=O)c1Cc1ccc(Cl)c(Br)c1", "UniProt P51681", "> 70%"),
    ("Nc1nc2[nH]c(C3CC3)c(Cc3cccc(C(F)(F)F)c3)c(=O)n2n1", "UniProt P51681", "36%"),
    ("Cc1cccc(Cc2c(C3CC3)[nH]c3nc(N)nn3c2=O)c1", "UniProt P51681", "62%"),
    ("Nc1nc2[nH]c(C3CC3)c(Cc3ccc(Cl)cc3)c(=O)n2n1", "UniProt P51681", "31%"),
    ("CC(C)c1[nH]c2nc(N)nn2c(=O)c1Cc1cc(Br)cc(Br)c1", "UniProt P51681", "64%"),
    ("Nc1nc2[nH]c(C3CC3)c(Cc3cccc(F)c3)c(=O)n2n1", "UniProt P51681", "43%"),
    ("Nc1nc2[nH]c(C3CC3)c(Cc3ccccc3)c(=O)n2n1", "UniProt P51681", "35%"),
    ("CC(C)c1[nH]c2nc(N)nn2c(=O)c1Cc1cccc(Cl)c1Cl", "UniProt P51681", "> 70%"),
    ("CCCc1[nH]c2nc(N)nn2c(=O)c1Cc1cccc(Cl)c1", "UniProt P51681", "64%"),
    ("O=c1c(Cc2cccc(Cl)c2)c(C2CC2)[nH]c2ncnn12", "UniProt P51681", "60%"),
    ("CCCCc1[nH]c2nc(N)nn2c(=O)c1Cc1cccc(Cl)c1", "UniProt P51681", "> 70%"),
    ("Nc1nc2[nH]c(C3CC3)c(Cc3ccccc3Cl)c(=O)n2n1", "UniProt P51681", "27%"),
    ("O=C(O)c1ccccc1Oc1ccc(Cl)cc1NS(=O)(=O)c1ccc(Cl)c(Cl)c1", "UniProt P51681", "< 50%"),
    ("CC(C)c1[nH]c2nc(N)nn2c(=O)c1Cc1cc(Cl)cc(Cl)c1", "UniProt P51681", "> 70%"),
    ("CC[C@@H](c1ccc(F)c(F)c1)n1c(C(=O)OC)c(-c2ccno2)[nH]c1=S", "UniProt P51681", "< 50%"),
    ("CCc1[nH]c2nc(N)nn2c(=O)c1Cc1cccc(Cl)c1", "UniProt P51681", "29%"),
    ("CCCCCc1[nH]c2nc(N)nn2c(=O)c1Cc1cccc(Cl)c1", "UniProt P51681", "38%"),
    ("CC(=O)C1=C(O)C(=O)N(c2ccc(Cl)cc2F)[C@@H]1C1CCCCC1", "UniProt P51681", "< 50%"),
]

Cited source for all entries: ChEMBL document CHEMBL4321857
